The measured values listed here are drawn from PubChem BioAssay AID737.

target: Estrogen receptor (Homo sapiens) (UniProt P03372); assay: ERα coactivator recruitment enhancers – biochemical, TR-FRET, ERα LBD, dose response (AID 737); details: TR-FRET ER-alpha LBD / SRC-Cy5 coactivator recruitment; at 12.5 µM; hits give high values
Sequence (P03372 whole entry, looked up, the tested form may be a part): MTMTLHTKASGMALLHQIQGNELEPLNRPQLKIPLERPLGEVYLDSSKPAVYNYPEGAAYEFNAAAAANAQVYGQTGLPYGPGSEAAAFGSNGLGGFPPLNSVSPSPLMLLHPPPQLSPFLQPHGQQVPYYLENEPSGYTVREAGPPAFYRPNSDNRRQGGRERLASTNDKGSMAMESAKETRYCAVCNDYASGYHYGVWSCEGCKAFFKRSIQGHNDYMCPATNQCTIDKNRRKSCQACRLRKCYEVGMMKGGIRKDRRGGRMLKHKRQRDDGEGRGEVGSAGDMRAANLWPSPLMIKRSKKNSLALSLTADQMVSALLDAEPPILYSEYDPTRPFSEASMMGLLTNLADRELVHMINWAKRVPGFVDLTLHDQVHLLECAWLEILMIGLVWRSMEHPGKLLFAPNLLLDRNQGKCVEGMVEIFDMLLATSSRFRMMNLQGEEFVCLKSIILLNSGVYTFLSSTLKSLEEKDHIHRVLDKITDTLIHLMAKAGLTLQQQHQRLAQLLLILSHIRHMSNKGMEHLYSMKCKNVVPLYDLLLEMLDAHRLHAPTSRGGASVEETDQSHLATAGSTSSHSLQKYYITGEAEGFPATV
Results with a measured potency or affinity are listed apart.
value-type: percent of control (%)
Numbers only, in %.

>  <molecule>
O=C(Cc1ccc(Cl)cc1)Nc1ccc2oc(-c3ccncc3)nc2c1

>  <percent of control [%]>
207

$$$$
>  <molecule>
CCOC(=O)c1sc(NC(=O)c2ccc3ncsc3c2)nc1C

>  <percent of control [%]>
349

$$$$
>  <molecule>
O=C(c1cc2ccccc2oc1=O)N(Cc1ccco1)Cc1cccs1

>  <percent of control [%]>
110

$$$$
>  <molecule>
O=C(COC(=O)C(O)c1ccccc1)c1ccc2c(c1)OCCO2 (configuration not stated)

>  <percent of control [%]>
108

$$$$
>  <molecule>
O=C(Nc1ccc(-c2noc(-c3cccs3)n2)cc1)c1cccnc1

>  <percent of control [%]>
208

$$$$
>  <molecule>
CCOC(=O)Cn1c(-c2nonc2NC(=O)c2ccccc2F)nc2ccccc21

>  <percent of control [%]>
218

$$$$

percent of control reading for COc1ccc(OC)c(C(=O)CSc2nnc(-c3ccc(OC)c(OC)c3)o2)c1 : 662
